Biological target: Amylin 3(a) receptor (human calcitonin receptor (CTa) with RAMP-3) on BHK570 cells (human, UniProt P30988 25-474)
Sequence (P30988 25-474): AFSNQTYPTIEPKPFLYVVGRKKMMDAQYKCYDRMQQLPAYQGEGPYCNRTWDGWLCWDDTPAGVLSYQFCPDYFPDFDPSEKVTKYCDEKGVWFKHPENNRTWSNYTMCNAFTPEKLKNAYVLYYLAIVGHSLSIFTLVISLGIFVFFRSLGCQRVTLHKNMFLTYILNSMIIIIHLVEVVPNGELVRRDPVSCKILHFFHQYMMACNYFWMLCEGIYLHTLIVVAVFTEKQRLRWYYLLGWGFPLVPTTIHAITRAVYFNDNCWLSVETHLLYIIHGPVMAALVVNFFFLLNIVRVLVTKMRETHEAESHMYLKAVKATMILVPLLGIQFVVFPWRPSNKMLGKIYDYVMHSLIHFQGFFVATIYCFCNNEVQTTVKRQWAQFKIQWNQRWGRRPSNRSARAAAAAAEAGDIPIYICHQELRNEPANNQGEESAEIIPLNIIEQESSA
Assay: cell-based or functional assay
Positions of bridges follow the written chain, without caps; N, C: chain ends. *: point of attachment. C20 diacid = O=C(O)CCCCCCCCCCCCCCCCCCC(=O)*
PROPERTY NAME: Potency luciferase assay (nM)
The answer is to be given in nM; state only the numeric part.

# Potency luciferase assay of EERECNTATCATQRLANFLVHSSNNFGPILPPTNVGSNTY (N-alpha-[(S)-4-carboxy-4-(19-carboxynonadecanoylamino)butyryl] on the N-terminal Glu of the extension; disulfide bridge between the two Cys; C-terminal amide) [N-alpha-[(S)-4-carboxy-4-(19-carboxynonadecanoylamino)butyryl]-Glu-Glu-Arg-[Glu1]-pramlintide (1-37)] = 0.3

# Potency luciferase assay of {C20 diacid}-EKRKCNTATCATQRLANFLVHSSNNFGPILPPTNVGSNTY-NH2 (disulfide 5-10 (inferred)) [N-alpha-(19-carboxynonadecanoyl)-Glu-Lys-Arg-pramlintide (1-37)] = 0.08

# Potency luciferase assay of {C20 diacid}-EERECQTATCATQRLANFLVRSSQNLGPVLPPTNVGSNTY-NH2 (disulfide 5-10 (inferred)) [N-alpha-(19-carboxynonadecanoyl)-Glu-Glu-Arg-[Glu1,Gln3,Arg18,Gln21,Leu23,Val26]-pramlintide (1-37)] = 0.09

# Potency luciferase assay of {C20 diacid}-EERECNTATCATQRLANFLVHSSNNFGPILPPTNVGSNTY-NH2 (disulfide 5-10 (inferred)) [N-alpha-(19-carboxynonadecanoyl)-Glu-Glu-Arg-[Glu1]-pramlintide (1-37)] = 0.08

From: patent US20100222269A1
